Values compiled from patent US20250171437A1.

# target.system: human PAH with the R408W mutation (A375 R408W cells) (Homo sapiens, UniProt P00439, R408W)
# Construct: expressed in transfected cells
# Sequence (P00439 whole entry R408W): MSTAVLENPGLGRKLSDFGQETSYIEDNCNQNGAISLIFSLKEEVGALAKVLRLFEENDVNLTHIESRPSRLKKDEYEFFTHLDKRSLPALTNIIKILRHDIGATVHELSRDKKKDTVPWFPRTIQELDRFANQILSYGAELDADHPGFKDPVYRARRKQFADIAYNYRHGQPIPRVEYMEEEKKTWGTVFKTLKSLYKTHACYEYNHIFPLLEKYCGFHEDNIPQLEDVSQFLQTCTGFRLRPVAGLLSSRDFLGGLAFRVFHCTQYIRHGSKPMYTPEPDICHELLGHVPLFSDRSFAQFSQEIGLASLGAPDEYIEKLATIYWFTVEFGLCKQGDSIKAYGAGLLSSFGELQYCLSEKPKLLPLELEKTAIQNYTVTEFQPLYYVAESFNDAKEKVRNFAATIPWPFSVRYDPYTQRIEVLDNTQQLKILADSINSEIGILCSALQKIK
# assay.overview: Cell Based Phenylalanine Flux Assay
# test.context: A375 cells expressing R408W PAH; 24 hrs with compound, then 20 μM sepiapterin and 800 μM 13C9,15N-Phenylalanine for 4 hours; 13C-Tyrosine by LC-MS; average where tested multiple times
readout.kind: AC50

Worked examples, 4 compounds total:
compound	value.measured
NCc1ccc2c(C(=O)N3CCc4[nH]cnc4C3c3nc4cc(F)ccc4o3)cnn2c1 (stereo not drawn)	1 to 5 µM
Cc1nc(-c2cnn(C)c2)oc1C(=O)N1CCc2[nH]cnc2C1c1nc2cc(F)ccc2o1 (stereo not drawn)	1 to 5 µM
Cc1nc(C(C)O)oc1C(=O)N1CCc2[nH]cnc2C1c1nc2c(F)cccc2o1 (stereo not drawn)	≥ 5 µM
CN(C)Cc1ccc2c(C(=O)N3CCc4[nH]cnc4C3c3nc4cc(F)ccc4o3)cnn2c1 (stereo not drawn)	1 to 5 µM

For this compound ( N#Cc1ccc2c(C(=O)N3CCc4[nH]cnc4C3c3nc4cc(F)ccc4o3)cnn2c1 (stereo not drawn) ), measured AC50 is ≥ 5 µM

For this compound ( Cc1cccc2nc(C3c4nc[nH]c4CCN3C(=O)c3ncnn3C)oc12 (stereo not drawn) ), measured AC50 is 1 to 5 µM

For this compound ( CC(C)(O)c1nnc(C(=O)N2CCc3[nH]cnc3C2c2nc3cc(F)ccc3o2)o1 (stereo not drawn) ), measured AC50 is 1 to 5 µM

For this compound ( O=C(c1cnco1)N1CCc2[nH]cnc2C1c1nc2c(F)c(F)ccc2o1 (stereo not drawn) ), measured AC50 is ≥ 5 µM

For this compound ( CC(C)(O)c1nc(C(F)F)c(CN2CCc3[nH]cnc3C2c2nc3cc(F)ccc3o2)o1 (stereo not drawn) ), measured AC50 is ≥ 5 µM
